// provenance: patent US20230233569A1

test-system: NRAS Q61R (Homo sapiens, UniProt P01111+P62937, Q61R)
Sequence (P01111 whole entry Q61R): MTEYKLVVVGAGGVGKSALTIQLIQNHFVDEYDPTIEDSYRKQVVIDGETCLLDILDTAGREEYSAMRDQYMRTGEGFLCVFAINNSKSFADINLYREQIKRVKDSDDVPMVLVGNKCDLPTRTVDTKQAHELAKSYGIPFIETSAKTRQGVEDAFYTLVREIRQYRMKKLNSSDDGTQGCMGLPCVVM
Sequence (P62937 whole entry): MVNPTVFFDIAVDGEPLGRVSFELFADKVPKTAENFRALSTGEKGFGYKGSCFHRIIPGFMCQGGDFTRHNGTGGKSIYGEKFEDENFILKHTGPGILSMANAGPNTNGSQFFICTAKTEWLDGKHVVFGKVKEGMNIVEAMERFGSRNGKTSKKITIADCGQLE
assay-explanation: Ras-Raf disruption / FRET / MOA assay (BRAF RBD)
Type: biochemical
The reader will find reported IC50 values listed item by item below.

INSERT INTO results (compound, result) VALUES
  ('CCn1c(-c2cccnc2[C@H](C)OC)c2c3cc(ccc31)-c1cc(O)cc(c1)C[C@H](NC(=O)[C@H](C(C)C)N(C)C(=O)CN(C)C(=O)[C@H]1CN1CCCC#N)C(=O)N1CCC[C@H](N1)C(=O)OCC(C)(C)C2 (some centres unmarked) [Example 273]', '100 to 1000 nM'),
  ('CCn1c(-c2cccnc2[C@H](C)OC)c2c3cc(ccc31)-c1cc(O)cc(c1)C[C@H](NC(=O)[C@H](C1CCCC1)N(C)C(=O)CN(C)C(=O)[C@@H]1N[C@@H]1C1CC1)C(=O)N1CCC[C@H](N1)C(=O)OCC(C)(C)C2 [Example 170]', '10 to 100 nM');

Query :: IC50 lookup needed for CCn1c(-c2cccnc2[C@H](C)OC)c2c3cc(ccc31)-c1cc(O)cc(c1)C[C@H](NC(=O)[C@H](C(C)C)N(C)C(=O)CN(C)C(=O)[C@@H]1CN1CCCN1CCCC1=O)C(=O)N1CCC[C@H](N1)C(=O)OCC(C)(C)C2 (some centres unmarked) [Example 269] , thanks.
Result :: 100 to 1000 nM

Query :: What do we get for CCn1c(-c2cccnc2[C@H](C)OC)c2c3cc(ccc31)-c1cc(cc(C(F)F)c1)C[C@H](NC(=O)[C@H](C1CCCC1)N(C)C(=O)CN(C)C(=O)[C@@H]1N[C@@H]1C1CC1)C(=O)N1CCC[C@H](N1)C(=O)OCC(C)(C)C2 [Example 320] ?
Result :: 1000 to 10000 nM

Query :: What do we get for CCn1c(-c2cccnc2[C@H](C)OC)c2c3cc(ccc31)-c1cc(O)cc(c1)C[C@H](NC(=O)[C@H](C(C)C)N(C)C(=O)CN(C)C(=O)[C@H]1CN1CC1COC1)C(=O)N1CCC[C@H](N1)C(=O)OCC(C)(C)C2 (some centres unmarked) [Example 277] ?
Result :: 1000 to 10000 nM

Query :: What do we get for CC[C@@H]1N[C@@H]1C(=O)N(C)CC(=O)N(C)[C@H](C(=O)N[C@H]1Cc2cc(O)cc(c2)-c2ccc3c(c2)c(c(-c2cccnc2[C@H](C)OC)n3CC)CC(C)(C)COC(=O)[C@@H]2CCCN(N2)C1=O)C(C)C [Example 263] ?
Result :: 100 to 1000 nM

Query :: What do we get for CCn1c(-c2cccnc2[C@H](C)OC)c2c3cc(ccc31)-c1cc(O)cc(c1)C[C@H](NC(=O)[C@H](C(C)C)N(C)C(=O)CNC(=O)[C@@H]1N[C@@H]1C1CC1)C(=O)N1CCC[C@H](N1)C(=O)OCC(C)(C)C2 [Example 141] ?
Result :: 100 to 1000 nM

Query :: What do we get for CCn1c(-c2cccnc2[C@H](C)OC)c2c3cc(ccc31)-c1cc(O)cc(c1)C[C@H](NC(=O)[C@H](C(C)C)N(C)C(=O)CN(C)C(=O)[C@@]1(C)CN1)C(=O)N1CCC[C@H](N1)C(=O)OCC(C)(C)C2 [Example 256] ?
Result :: 100 to 1000 nM

----------
test-system: KRAS G13C (Homo sapiens, UniProt P01116+P62937, G13C)
Sequence (P01116 1-169 isoform P01116-2 G13C limits assumed, one chain of several): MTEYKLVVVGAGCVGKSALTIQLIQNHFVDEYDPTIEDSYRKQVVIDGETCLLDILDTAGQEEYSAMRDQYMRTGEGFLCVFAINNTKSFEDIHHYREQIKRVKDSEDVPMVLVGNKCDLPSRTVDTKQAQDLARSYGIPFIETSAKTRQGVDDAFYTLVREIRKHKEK
assay-explanation: Ras-Raf disruption / FRET / MOA assay (BRAF RBD)
Format: biochemical
study-conditions: KRAS G13C FRET data IC50, Ras-Raf disruption, with Cyclophilin A
readout: IC50

INSERT INTO measurements (compound, test_system, result) VALUES
  ('CCn1c(-c2cccnc2[C@H](C)OC)c2c3cc(ccc31)-c1cc(O)cc(c1)C[C@H](NC(=O)[C@H](C(C)C)N(C)C(=O)CN(C)C(=O)[C@@H]1N[C@@H]1C(C)C)C(=O)N1CCC[C@H](N1)C(=O)OCC(C)(C)C2 [Example 264]', 'KRAS G13C (Homo sapiens, UniProt P01116+P62937, G13C)', '10 to 100 nM'),
  ('CCn1c(-c2cccnc2[C@H](C)OC)c2c3cc(ccc31)-c1cc(O)cc(c1)C[C@H](NC(=O)[C@H](C(C)C)N(C)C(=O)CN(C)C(=O)[C@H]1CN1Cc1ccccc1F)C(=O)N1CCC[C@H](N1)C(=O)OCC(C)(C)C2 (some centres unmarked) [Example 155]', 'KRAS G13C (Homo sapiens, UniProt P01116+P62937, G13C)', '10 to 100 nM'),
  ('CCn1c(-c2cccnc2[C@H](C)OC)c2c3cc(ccc31)-c1cc(O)cc(c1)C[C@H](NC(=O)[C@H](C(C)C)N(C)C(=O)CN(C)C(=O)[C@H]1CN1CCCOC)C(=O)N1CCC[C@H](N1)C(=O)OCC(C)(C)C2 (some centres unmarked) [Example 201]', 'KRAS G13C (Homo sapiens, UniProt P01116+P62937, G13C)', '10 to 100 nM'),
  ('CCn1c(-c2cccnc2[C@H](C)OC)c2c3cc(ccc31)-c1cc(O)cc(c1)C[C@H](NC(=O)[C@H](C(C)C)N(C)C(=O)C13CC(CN1C(=O)[C@H]1CN1)C3)C(=O)N1CCC[C@H](N1)C(=O)OCC(C)(C)C2 [Example 164]', 'KRAS G13C (Homo sapiens, UniProt P01116+P62937, G13C)', '100 to 1000 nM'),
  ('CCn1c(-c2cccnc2[C@H](C)OC)c2c3cc(ccc31)-c1cc(O)cc(c1)C[C@H](NC(=O)[C@H](C(C)C)N1CC[C@@H](NC(=O)[C@@H]3CN3)C1=O)C(=O)N1CCC[C@H](N1)C(=O)OCC(C)(C)C2 [Example 129]', 'KRAS G13C (Homo sapiens, UniProt P01116+P62937, G13C)', '< 10 nM');

Query :: IC50 lookup needed for CCn1c(-c2cccnc2[C@H](C)OC)c2c3cc(ccc31)-c1cc(O)cc(c1)C[C@H](NC(=O)[C@H](C(C)C)N(C)C(=O)[C@H](C)N(C)C(=O)[C@H]1CN1)C(=O)N1CCC[C@H](N1)C(=O)OCC(C)(C)C2 [Example 102] , thanks.
Result :: 10 to 100 nM

Query :: What do we get for CCn1c(-c2cccnc2[C@H](C)OC)c2c3cc(ccc31)-c1cc(O)cc(c1)C[C@H](NC(=O)[C@H](C1CCCC1)N(C)C(=O)CN(C)C(=O)[C@H]1N[C@H]1C1(OC)CC1)C(=O)N1CCC[C@H](N1)C(=O)OCC(C)(C)C2 (single isomer, unassigned) [Example 322] ?
Result :: 10 to 100 nM

Query :: What do we get for CCn1c(-c2cccnc2[C@H](C)OC)c2c3cc(ccc31)-c1cc(O)cc(c1)C[C@H](NC(=O)[C@H](C(C)C)N(C)C(=O)CN(C)C(=O)[C@H]1CN1CC1COC1)C(=O)N1CCC[C@H](N1)C(=O)OCC(C)(C)C2 (some centres unmarked) [Example 277] ?
Result :: 10 to 100 nM

----------
test-system: KRAS G13D (Homo sapiens, UniProt P01116+P62937, G13D)
Sequence (P01116 1-169 isoform P01116-2 G13D limits assumed): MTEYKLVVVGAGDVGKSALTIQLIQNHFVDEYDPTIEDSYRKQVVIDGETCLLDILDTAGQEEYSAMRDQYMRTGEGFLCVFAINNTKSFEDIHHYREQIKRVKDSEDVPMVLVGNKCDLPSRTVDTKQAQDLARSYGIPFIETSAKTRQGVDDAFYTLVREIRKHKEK
Sequence (P62937 whole entry): as the sequence (P62937 whole entry) above
assay-explanation: Disruption of BRAF RBD interaction with Ras (FRET / MOA assay, with Cyclophilin A)
Assay type: biochemical
study-conditions: KRAS G13D FRET data IC50, KRAS G13D
pIC50: −log10 of the molar value.
The reader will find reported pIC50 values listed item by item below.

The cases that follow already have their pIC50 on record.
INSERT INTO assay_data (compound, readout, result) VALUES
  ('CCn1c(-c2cnccc2COC)c2c3cc(ccc31)-c1cc(O)cc(c1)C[C@H](NC(=O)[C@H](C(C)C)N(C)C(=O)[C@H](C)O)C(=O)N1CCC[C@H](N1)C(=O)OCC(C)(C)C2', 'pIC50', '6.00 to 7.00'),
  ('CCn1c(-c2cccnc2[C@H](C)OC)c2c3cc(ccc31)-c1cccc(c1)C[C@H](NC(=O)[C@H](C(C)C)N(C)C(=O)[C@H]1CCN(C(=O)CNC)C1)C(=O)N1CCC[C@H](N1)C(=O)OCC(C)(C)C2', 'pIC50', '5.00 to 6.00'),
  ('CCn1c(-c2cnccc2COC)c2c3cc(ccc31)-c1cc(O)cc(c1)C[C@H](NC(=O)[C@H](C(C)C)N(C)C(=O)CO)C(=O)N1CCC[C@H](N1)C(=O)OCC(C)(C)C2', 'pIC50', '6.00 to 7.00'),
  ('CCn1c(-c2cnccc2COC)c2c3cc(ccc31)-c1cc(O)cc(c1)C[C@H](NC(=O)[C@H](C(C)C)N(C)C(=O)OC1CCOC1)C(=O)N1CCC[C@H](N1)C(=O)OCC(C)(C)C2 (stereo partly drawn)', 'pIC50', '5.00 to 6.00'),
  ('CCn1c(-c2cccnc2[C@H](C)OC)c2c3cc(ccc31)-c1cc(O)cc(c1)C[C@H](NC(=O)[C@H](C(C)C)N(C)C(=O)[C@H]1C[C@@H](O)C1)C(=O)N1CCC[C@H](N1)C(=O)OCC(C)(C)C2 (atropisomer, axis not shown)', 'pIC50', '7.00 to 8.00'),
  ('CCn1c(-c2cccnc2[C@H](C)OC)c2c3cc(ccc31)-c1csc(n1)C[C@H](NC(=O)N1CCCC1)C(=O)N1CCC[C@H](N1)C(=O)OCC(C)(C)C2', 'pIC50', '6.00 to 7.00'),
  ('CCn1c(-c2cnccc2COC)c2c3cc(ccc31)-c1cc(O)cc(c1)C[C@H](NC(=O)[C@H](C(C)C)N(C)C(=O)[C@H]1CCN(C)C1)C(=O)N1CCC[C@H](N1)C(=O)OCC(C)(C)C2', 'pIC50', '7.00 to 8.00'),
  ('CCn1c(-c2cccnc2[C@H](C)OC)c2c3cc(ccc31)-c1csc(n1)C[C@H](NC(=O)[C@H](C(C)C)N(C)C(=O)C1COC1)C(=O)N1CCC[C@H](N1)C(=O)OCC(C)(C)C2', 'pIC50', '< 5.00');

Query :: API: value(readout= pIC50, system= KRAS G13D (Homo sapiens, UniProt P01116+P62937, G13D), query= "CCn1c(-c2cnccc2COC)c2c3cc(ccc31)-c1cc(O)cc(c1)C[C@H](NC(=O)[C@H](C(C)C)N(C)C(=O)C1CCN(C)CC1)C(=O)N1CCC[C@H](N1)C(=O)OCC(C)(C)C2" )
Result :: 6.00 to 7.00
